- TEST_DETAILS: t1/2 in mouse plasma after oral dose (30/mg/Kg)
- Format: ADME, organism-based
Below, each of the molecules is paired with its reported half-life value.
REPORTED_METRIC: half-life (h)

[
  {
    "MOLECULE_SMILES": "CCc1cc(NC(=O)/C(C#N)=C(\\O)C2CC2)ccc1C(F)(F)F",
    "RELATION_OPERATOR": "=",
    "QUANTITATIVE_RESULT": 6
  },
  {
    "MOLECULE_SMILES": "C=CC/C(O)=C(\\C#N)C(=O)Nc1ccc(C(F)(F)F)cc1",
    "RELATION_OPERATOR": "=",
    "QUANTITATIVE_RESULT": 23
  },
  {
    "MOLECULE_SMILES": "CSc1ccc(NC(=O)/C(C#N)=C(\\O)C2CC2)cc1",
    "RELATION_OPERATOR": "<",
    "QUANTITATIVE_RESULT": 2
  },
  {
    "MOLECULE_SMILES": "N#C/C(C(=O)Nc1ccc(/C=C/c2ccc(Cl)cc2)cc1)=C(/O)C1CC1",
    "RELATION_OPERATOR": "=",
    "QUANTITATIVE_RESULT": 43
  }
]

* * *

- TEST_DETAILS: t1/2 in mouse plasma after oral dose (30/mg/Kg)
- Type: ADME, organism-based

[
  {
    "COMPOUND": "N#C/C(C(=O)Nc1ccc(Br)cn1)=C(/O)C1CC1",
    "QUANTITY_UNIT": "h",
    "half-life": 7
  },
  {
    "COMPOUND": "Cc1cc(NC(=O)/C(C#N)=C(\\O)C2CC2)ccc1Br",
    "QUANTITY_UNIT": "h",
    "half-life": 2
  },
  {
    "COMPOUND": "N#C/C(C(=O)Nc1ccc(Oc2ccc(Cl)cc2)cc1)=C(/O)C1CC1",
    "QUANTITY_UNIT": "h",
    "half-life": 21
  },
  {
    "COMPOUND": "N#C/C(C(=O)Nc1ccc(Br)cc1)=C(/O)C1CC1",
    "QUANTITY_UNIT": "h",
    "half-life": 33
  },
  {
    "COMPOUND": "N#C/C(C(=O)Nc1ccc(C(F)(F)F)cc1)=C(/O)C1CC1",
    "QUANTITY_UNIT": "h",
    "half-life": 28
  },
  {
    "COMPOUND": "CC(=O)c1ccc(NC(=O)/C(C#N)=C(\\O)C2CC2)cc1",
    "QUANTITY_UNIT": "h",
    "half-life": 4
  },
  {
    "COMPOUND": "Cc1cc(NC(=O)/C(C#N)=C(\\O)C2CC2)ccc1C(F)(F)C(F)(F)F",
    "QUANTITY_UNIT": "h",
    "half-life": 11
  },
  {
    "COMPOUND": "N#C/C(C(=O)Nc1ccc([S+]([O-])C(F)(F)F)cc1)=C(/O)C1CC1 (stereo not drawn)",
    "QUANTITY_UNIT": "h",
    "half-life": 3
  },
  {
    "COMPOUND": "C=C(C)/C(O)=C(\\C#N)C(=O)Nc1ccc(C(F)(F)F)cc1",
    "QUANTITY_UNIT": "h",
    "half-life": 13
  },
  {
    "COMPOUND": "Cc1cc(NC(=O)/C(C#N)=C(\\O)C2CC2)ccc1SC(F)(F)F",
    "QUANTITY_UNIT": "h",
    "half-life": 10
  },
  {
    "COMPOUND": "N#C/C(C(=O)Nc1cccc(Cl)c1)=C(/O)C1CC1",
    "QUANTITY_UNIT": "h",
    "half-life": 2
  },
  {
    "COMPOUND": "N#C/C(C(=O)Nc1ccc(C#N)cc1)=C(/O)C1CC1",
    "QUANTITY_UNIT": "h",
    "half-life": 6
  },
  {
    "COMPOUND": "N#C/C(C(=O)Nc1ccc(S(=O)(=O)C(F)(F)F)cc1)=C(/O)C1CC1",
    "QUANTITY_UNIT": "h",
    "half-life": 14
  },
  {
    "COMPOUND": "N#C/C(C(=O)Nc1ccc(C(F)(F)F)cn1)=C(/O)C1CC1",
    "QUANTITY_UNIT": "h",
    "half-life": 5
  },
  {
    "COMPOUND": "Cc1cc(NC(=O)/C(C#N)=C(\\O)C2CC2)ccc1C#N",
    "QUANTITY_UNIT": "h",
    "half-life": 7
  },
  {
    "COMPOUND": "Cc1cc(NC(=O)/C(C#N)=C(\\O)C2CC2)ccc1Cl",
    "QUANTITY_UNIT": "h",
    "half-life": 8
  },
  {
    "COMPOUND": "N#C/C(C(=O)Nc1ccc(SC(F)(F)F)cc1)=C(/O)C1CC1",
    "QUANTITY_UNIT": "h",
    "half-life": 6
  },
  {
    "COMPOUND": "N#C/C(C(=O)Nc1ccc(Cl)cc1)=C(/O)C1CC1",
    "QUANTITY_UNIT": "h",
    "half-life": 21
  },
  {
    "COMPOUND": "N#C/C(C(=O)Nc1ccc([N+](=O)[O-])cc1)=C(/O)C1CC1",
    "QUANTITY_UNIT": "h",
    "half-life": 8
  },
  {
    "COMPOUND": "N#C/C(C(=O)Nc1ccc(OC(F)(F)F)cc1)=C(/O)C1CC1",
    "QUANTITY_UNIT": "h",
    "half-life": 42
  },
  {
    "COMPOUND": "Cc1cc(NC(=O)/C(C#N)=C(\\O)C2CC2)ccc1C(F)(F)F",
    "QUANTITY_UNIT": "h",
    "half-life": 8
  },
  {
    "COMPOUND": "N#C/C(C(=O)Nc1ccc(C#Cc2ccc(Cl)cc2)cc1)=C(/O)C1CC1",
    "QUANTITY_UNIT": "h",
    "half-life": 68
  },
  {
    "COMPOUND": "Cc1cc(NC(=O)/C(C#N)=C(\\O)C2CC2)ccc1OC(F)(F)F",
    "QUANTITY_UNIT": "h",
    "half-life": 14
  }
]

* * *

- TARGET_UNDER_TEST: UniProt O35435
- Sequence (O35435 whole entry): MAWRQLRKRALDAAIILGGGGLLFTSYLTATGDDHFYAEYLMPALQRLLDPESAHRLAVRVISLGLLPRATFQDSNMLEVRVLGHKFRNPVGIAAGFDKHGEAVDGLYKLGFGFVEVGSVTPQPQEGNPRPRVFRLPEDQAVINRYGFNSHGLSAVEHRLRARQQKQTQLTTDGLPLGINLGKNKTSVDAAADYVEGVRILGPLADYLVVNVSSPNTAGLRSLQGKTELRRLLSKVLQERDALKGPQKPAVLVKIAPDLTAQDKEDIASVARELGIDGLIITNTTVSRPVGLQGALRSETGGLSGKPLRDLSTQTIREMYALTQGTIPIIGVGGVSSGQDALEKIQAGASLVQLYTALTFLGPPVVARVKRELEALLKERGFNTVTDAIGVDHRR
pIC50: −log10 of the molar value.

[
  {
    "COMPOUND": "N#C/C(C(=O)Nc1ccc(C(F)(F)F)cc1)=C(/O)c1ccc(C(F)(F)F)cc1",
    "RELATION_OPERATOR": "<",
    "pIC50": 5.00
  },
  {
    "COMPOUND": "N#C/C(C(=O)Nc1ccc(OC(F)(F)F)cc1)=C(/O)C1CC1",
    "RELATION_OPERATOR": "=",
    "pIC50": 6.76
  },
  {
    "COMPOUND": "N#C/C(C(=O)Nc1ccc(S(=O)(=O)C(F)(F)F)cc1)=C(/O)C1CC1",
    "RELATION_OPERATOR": "=",
    "pIC50": 7.05
  },
  {
    "COMPOUND": "N#C/C(C(=O)Nc1ccc(Oc2ccc(C(F)(F)F)cc2)cc1)=C(/O)C1CC1",
    "RELATION_OPERATOR": "=",
    "pIC50": 5.82
  },
  {
    "COMPOUND": "N#C/C(C(=O)Nc1ccc(C=Cc2ccc(Cl)cc2)cc1)=C(/O)C1CC1",
    "RELATION_OPERATOR": "=",
    "pIC50": 7.66
  },
  {
    "COMPOUND": "Cc1cc(Cl)ccc1NC(=O)/C(C#N)=C(\\O)C1CC1",
    "RELATION_OPERATOR": "=",
    "pIC50": 5.43
  },
  {
    "COMPOUND": "COC(=O)c1ccc(NC(=O)/C(C#N)=C(\\O)C2CC2)cc1",
    "RELATION_OPERATOR": "=",
    "pIC50": 5.95
  },
  {
    "COMPOUND": "N#C/C(C(=O)Nc1ccc(O)cc1)=C(/O)C1CC1",
    "RELATION_OPERATOR": "<",
    "pIC50": 4.00
  },
  {
    "COMPOUND": "N#C/C(C(=O)Nc1ccc(C(F)(F)F)cc1)=C(/O)C1CCCN1 (configuration not stated)",
    "RELATION_OPERATOR": "<",
    "pIC50": 4.00
  },
  {
    "COMPOUND": "C#C/C(O)=C(\\C#N)C(=O)Nc1ccc(C(F)(F)F)cc1",
    "RELATION_OPERATOR": "=",
    "pIC50": 5.68
  },
  {
    "COMPOUND": "Cc1oncc1C(=O)Nc1ccc(C(F)(F)F)cc1 [LEFLUNOMIDE]",
    "RELATION_OPERATOR": "=",
    "pIC50": 7.52
  },
  {
    "COMPOUND": "N#C/C(C(=O)Nc1ccc(-c2ccc(F)cc2)cc1)=C(/O)C1CC1",
    "RELATION_OPERATOR": "=",
    "pIC50": 5.07
  },
  {
    "COMPOUND": "N#C/C(C(=O)Nc1ccc(C(N)=O)cc1)=C(/O)C1CC1",
    "RELATION_OPERATOR": "<",
    "pIC50": 4.00
  },
  {
    "COMPOUND": "N#C/C(C(=O)Nc1ccc([S+]([O-])C(F)(F)F)cc1)=C(/O)C1CC1 (configuration not stated)",
    "RELATION_OPERATOR": "=",
    "pIC50": 6.38
  },
  {
    "COMPOUND": "Cc1cc(NC(=O)/C(C#N)=C(\\O)C2CC2)ccc1C(F)(F)F",
    "RELATION_OPERATOR": "=",
    "pIC50": 7.26
  },
  {
    "COMPOUND": "N#C/C(C(=O)Nc1ccc(/C=C/c2ccc(Cl)cc2)cc1)=C(/O)C1CC1",
    "RELATION_OPERATOR": "=",
    "pIC50": 4.90
  },
  {
    "COMPOUND": "C/C=C/C(O)=C(\\C#N)C(=O)Nc1ccc(C(F)(F)F)cc1",
    "RELATION_OPERATOR": "=",
    "pIC50": 5.37
  },
  {
    "COMPOUND": "N#C/C(C(=O)Nc1ccc(-c2ncco2)cc1)=C(/O)C1CC1",
    "RELATION_OPERATOR": "=",
    "pIC50": 4.70
  },
  {
    "COMPOUND": "N#C/C(C(=O)Nc1ccc(Oc2ccc(Cl)cc2)cc1)=C(/O)C1CC1",
    "RELATION_OPERATOR": "=",
    "pIC50": 6.08
  },
  {
    "COMPOUND": "N#C/C(C(=O)Nc1ccc(C(F)(F)F)cc1)=C(/O)C1CCOC1 (configuration not stated)",
    "RELATION_OPERATOR": "=",
    "pIC50": 4.93
  },
  {
    "COMPOUND": "CN1CCCC1/C(O)=C(\\C#N)C(=O)Nc1ccc(C(F)(F)F)cc1 (configuration not stated)",
    "RELATION_OPERATOR": "<",
    "pIC50": 4.00
  },
  {
    "COMPOUND": "Cc1cc(NC(=O)/C(C#N)=C(\\O)C2CC2)ccc1SC(F)(F)F",
    "RELATION_OPERATOR": "=",
    "pIC50": 6.75
  }
]
